molecular target: Death-associated protein kinase 1 (DAPK1) (Homo sapiens, UniProt P53355); test: single-dose kinase assay, % inhibition at […]; format: biochemical; details: read-out: % Inhibition against DAPK1 ^a
Sequence (P53355 whole entry): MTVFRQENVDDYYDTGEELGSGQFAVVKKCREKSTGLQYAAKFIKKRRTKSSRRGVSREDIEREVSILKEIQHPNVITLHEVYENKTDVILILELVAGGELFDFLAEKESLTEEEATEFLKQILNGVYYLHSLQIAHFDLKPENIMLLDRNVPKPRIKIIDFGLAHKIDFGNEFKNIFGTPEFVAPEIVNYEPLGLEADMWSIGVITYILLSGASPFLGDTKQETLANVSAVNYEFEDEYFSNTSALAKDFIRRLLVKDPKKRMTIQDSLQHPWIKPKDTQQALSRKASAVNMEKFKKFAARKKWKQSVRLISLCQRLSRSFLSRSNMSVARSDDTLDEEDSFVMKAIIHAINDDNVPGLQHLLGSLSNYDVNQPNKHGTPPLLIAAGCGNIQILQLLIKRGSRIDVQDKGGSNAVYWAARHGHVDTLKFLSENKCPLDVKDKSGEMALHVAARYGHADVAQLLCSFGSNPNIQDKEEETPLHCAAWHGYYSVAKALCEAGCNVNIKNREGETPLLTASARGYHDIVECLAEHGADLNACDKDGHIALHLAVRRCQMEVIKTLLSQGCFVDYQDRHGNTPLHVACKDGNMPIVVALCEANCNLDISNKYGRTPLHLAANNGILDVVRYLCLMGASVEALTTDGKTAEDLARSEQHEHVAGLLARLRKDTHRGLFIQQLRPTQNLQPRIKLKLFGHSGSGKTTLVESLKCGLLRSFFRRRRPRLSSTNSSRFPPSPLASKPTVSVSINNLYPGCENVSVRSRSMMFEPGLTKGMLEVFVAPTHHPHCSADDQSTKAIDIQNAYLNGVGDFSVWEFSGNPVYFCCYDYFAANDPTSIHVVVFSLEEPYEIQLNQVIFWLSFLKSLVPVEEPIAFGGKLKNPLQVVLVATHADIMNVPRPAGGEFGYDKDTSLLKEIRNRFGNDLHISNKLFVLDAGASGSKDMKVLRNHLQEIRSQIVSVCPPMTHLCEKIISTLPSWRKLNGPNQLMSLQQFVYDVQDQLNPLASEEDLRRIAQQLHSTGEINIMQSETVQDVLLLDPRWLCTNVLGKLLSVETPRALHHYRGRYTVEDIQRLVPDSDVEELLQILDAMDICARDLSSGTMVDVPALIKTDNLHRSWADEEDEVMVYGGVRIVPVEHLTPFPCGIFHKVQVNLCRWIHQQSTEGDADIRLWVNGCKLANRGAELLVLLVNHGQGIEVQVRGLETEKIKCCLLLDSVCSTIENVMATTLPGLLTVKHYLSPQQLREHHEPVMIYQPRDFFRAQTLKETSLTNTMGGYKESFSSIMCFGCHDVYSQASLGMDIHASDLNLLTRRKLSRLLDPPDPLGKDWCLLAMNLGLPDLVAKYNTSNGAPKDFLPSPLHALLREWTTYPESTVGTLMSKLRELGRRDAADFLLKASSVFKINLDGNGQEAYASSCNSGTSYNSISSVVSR
// reported inhibition at 10 µM per item
Answer in %, number only, no unit symbol.

Solved entries (count: 3):
lineNotation	unitAbbreviation	inhibition at 10 µM
O=C(Nc1ccc(Oc2cccc(Cl)c2)c(Cl)c1)c1ccnnc1	%	60
O=C(Nc1ccc(Oc2cccc(Cl)c2)c(Cl)c1)c1cccnc1	%	61.5
O=C(Nc1ccc(Oc2cccc(Cl)c2)c(Cl)c1)c1cccnn1	%	61.5

query: Give Death-associated protein kinase 1 (DAPK1) (Homo sapiens, UniProt P53355) inhibition at 10 µM for O=C(Nc1ccc(Oc2cccc(Cl)c2)c(Cl)c1)c1ccccn1
result: 61.7

----------
target: Death-associated protein kinase 1 (DAPK1) (Homo sapiens, UniProt P53355)
quantityMeasured: pIC50
Worth noting: pIC50 values are minus log10 of concentrations stated in mol/L.

Solved entries (count: 2):
molecule	pIC50
O=C(Nc1ccc(Oc2ccc(F)cc2)c(Cl)c1)c1cccnc1 [4j]	5.77
O=C(Nc1ccc(Oc2ccc(F)cc2)c(Cl)c1)c1ccncc1 [4k]	5.14

query: Record request: pIC50 value, item O=C(Nc1ccc(Oc2cccc(Cl)c2)c(Cl)c1)c1ccncc1 [4q]
result: 5.96

query: Quick one: O=C(Nc1ccc(Oc2ccc(F)cc2)c(Cl)c1)c1ccccn1 [4h]
result: 5.17
